- target_system: AT-LANAA-BD (Homo sapiens, UniProt P51531-2 1358-1490, P1378A;P1380A;P1381A)
- method_notes: fluorescence anisotropy
assay_metric: Kd (µM)

                                     binder  assay_result
0  DNA.FA 12 bp dsDNA (dsDNA) DNA 1: CCTCAATTGGTC DNA 2: GACCAATTGAGG             4

Data provenance is paper PMC8184587.
